Entry source: PubChem BioAssay AID328

The entries below come with measured T/C values attached.
- Test system: BDF1 mice, P388 leukemia ip, median survival T/C
- protocolText: NCI In Vivo Anticancer Drug Screen. Data for tumor model P388 Leukemia (intraperitoneal) in B6D2F1 (BDF1) mice
- assayConditions: endpoint: median survival time; dose: 100.0 mg/kg/injection; schedule: Q01DX001 (ip); vehicle: saline; higher = longer survival
Toxic doses and inconclusive results are not listed.

Sample answers from the record:
{"compound": "FC(F)(F)C(Cl)Br (stereo not given)", "recordedMeasurement": "90 % of control"}
{"compound": "CCCN(CCC)CCCOC(=O)c1ccc([N+](=O)[O-])cc1", "recordedMeasurement": "100 % of control"}
{"compound": "CC(C)(C)c1ccc(OCc2cnc[nH]2)cc1", "recordedMeasurement": "113 % of control"}
{"compound": "COc1cccc(N=C(N)N=C(N)N)c1", "recordedMeasurement": "100 % of control"}

Req: So what does the record say about T/C for O=S(=O)(O)c1ccncc1 ?
Resp: 116 % of control
